biological target: human JAK2 (Homo sapiens (Human), UniProt O60674)
Sequence (O60674 828-1132): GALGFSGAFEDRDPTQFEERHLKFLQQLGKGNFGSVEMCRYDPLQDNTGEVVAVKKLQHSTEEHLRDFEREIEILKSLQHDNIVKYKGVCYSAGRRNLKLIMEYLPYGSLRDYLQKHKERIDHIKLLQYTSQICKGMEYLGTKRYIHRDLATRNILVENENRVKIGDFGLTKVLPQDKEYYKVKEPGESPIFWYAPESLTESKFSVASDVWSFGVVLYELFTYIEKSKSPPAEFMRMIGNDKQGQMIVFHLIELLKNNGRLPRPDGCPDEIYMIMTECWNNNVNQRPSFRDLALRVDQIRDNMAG
property.measured: IC50

Example entries and their recorded answers appear below.
compound | IC50
Cc1nn2cnc3ccsc3c2c1[C@H]1CC[C@H](CC#N)CC1 | ≤ 0.1 µM
C[C@@H](O)c1nc2cnc3ccsc3c2n1C1CCC(NCCC#N)CC1 (single isomer, unassigned) [30 (first peak)] | > 2 µM

IC50 reading for C[C@@H](O)c1nc2cnc3ccsc3c2n1[C@H]1CC[C@H](CC#N)OC1 : ≤ 1 µM

IC50 reading for COC(=O)NC[C@H]1CC[C@H](n2c([C@@H](C)O)nc3cnc4ccsc4c32)CC1 : ≤ 1 µM

----------
target: human JAK1 (Homo sapiens)
pIC50: −log10 of the molar value.
property.measured: pIC50

Example entries and their recorded answers appear below.
molecule | measured.on | observed.measurement
C[C@@H](O)c1nc2cnc3ccsc3c2n1[C@H]1CC[C@H](CC#N)OC1 [Example 20] | human JAK1 (Homo sapiens) | ≥ 7.00
C[C@@H](O)c1nc2cnc3ccsc3c2n1[C@H]1CCCN(CCC#N)C1 [Example 56] | human JAK1 (Homo sapiens) | ≥ 6.00
C[C@H](O)c1nc2cnc3ccsc3c2n1[C@H]1CC[C@H](CC#N)OC1 [Example 45] | human JAK1 (Homo sapiens) | ≥ 7.00

Short answer on human JAK1 (Homo sapiens) for C[C@@H](O)c1nc2cnc3ccsc3c2n1C1CCC(NCCC#N)CC1 (single isomer, unassigned) [30 (second peak)] , pIC50: ≥ 5.70

Short answer on human JAK1 (Homo sapiens) for N#CCC1CCC(CO)(n2cnc3cnc4ccsc4c32)CC1 (single isomer, unassigned) [72 (second peak)] , pIC50: ≥ 7.00

Short answer on human JAK1 (Homo sapiens) for C[C@@H](O)c1nc2cnc3ccsc3c2n1C1CCN(CC(F)(F)F)CC1 [Example 15] , pIC50: ≥ 5.70

Short answer on human JAK1 (Homo sapiens) for C[C@@H](O)c1nc2cnc3ccsc3c2n1[C@H]1CCN(C(=O)CC#N)C1 [Example 63] , pIC50: ≥ 5.70

Short answer on human JAK1 (Homo sapiens) for CC(N)c1nc2cnc3ccsc3c2n1[C@H]1CC[C@H](CC#N)OC1.O=C(O)C(F)(F)F (stereo partly drawn) [Example 68, trifluoroacetate] , pIC50: ≥ 7.00

----------
tested on: human JAK1; assay: In vitro JAK kinase assay (HTRF, phosphorylation of a biotinylated peptide), JAK1; type: biochemical; details: ratio of IC50s, 1 mM ATP
property.measured: JAK2/JAK1

mol.smiles | property.measured | observed.measurement
N#CC[C@H]1CC[C@H](n2/c(=N/C#N)[nH]c3cnc4ccsc4c32)CC1.O=C(O)C(F)(F)F | JAK2/JAK1 | >6
C[C@@H](O)c1nc2cnc3ccsc3c2n1[C@H]1CC[C@@H](n2cncn2)CC1 | JAK2/JAK1 | >6
C[C@@H](O)c1nc2cnc3ccsc3c2n1[C@H]1CC[C@H](CNS(C)(=O)=O)CC1 | JAK2/JAK1 | >10

Below: the item to evaluate.
JAK2/JAK1 reading for COC(=O)NC[C@H]1CC[C@H](n2c([C@@H](C)O)nc3cnc4ccsc4c32)CC1 : >10

----------
tested on: human JAK1; experiment: In vitro JAK kinase assay (HTRF, phosphorylation of a biotinylated peptide), JAK1; type: biochemical; details: ratio of IC50s, 1 mM ATP
Collected JAK2/JAK1 values appear next to each entry.

Example entries and their recorded answers appear below.
molecule | observed.measurement
CCc1nc2cnc3ccsc3c2n1[C@H]1CC[C@H](CC#N)OC1 | >10
C[C@@H](O)c1nc2cnc3ccsc3c2n1[C@H]1CCCN(C(=O)CCc2cn[nH]c2)C1 | >10
CNS(=O)(=O)C[C@H]1CC[C@H](n2c([C@@H](C)O)nc3cnc4ccsc4c32)CC1 | >5
CC(C)OC(=O)NC[C@H]1CC[C@H](n2c(CC#N)nc3cnc4ccsc4c32)CC1 | >10
CC(C)c1nc2cnc3ccsc3c2n1[C@H]1CC[C@H](CC#N)CC1 | >10

JAK2/JAK1 reading for Cc1nc2cnc3ccsc3c2n1[C@H]1CC[C@H](CC#N)OC1 : >10

----------
Collected pIC50 values appear next to each entry.
target: human JAK1 (Homo sapiens)
pIC50: −log10 of the molar value.

Example entries and their recorded answers appear below.
compound | pIC50
C[C@@H](O)c1nc2cnc3ccsc3c2n1C1CCC(NCCC#N)CC1 (single isomer, unassigned) [30 (first peak)] | ≥ 6.00
CS(=O)(=O)NCc1nc2cnc3ccsc3c2n1[C@H]1CC2CCC1C2 (some centres unmarked) | ≥ 6.00
CC(C)OC(=O)NC[C@H]1CC[C@H](n2c([C@@H](C)O)nc3cnc4ccsc4c32)CO1 | ≥ 7.00
C[C@@H](O)c1nc2cnc3ccsc3c2n1C1CCN(CC#N)CC1.O=C(O)C(F)(F)F [Example 61, trifluoroacetate] | ≥ 6.00
C[C@@H](O)c1nc2cnc3ccsc3c2n1[C@H]1CC[C@@H](CC#N)OC1 | ≥ 6.00
C[C@@H](O)c1nc2cnc3ccsc3c2n1C1CCC(O)(CC#N)CC1 (single isomer, unassigned) [24 (first peak)] | ≥ 7.00
C[C@@H](O)c1nc2cnc3ccsc3c2n1[C@H]1CCN(CCCC(F)(F)F)C1 | ≥ 7.00

Below: the item to evaluate.
Short answer on human JAK1 (Homo sapiens) for C[C@@H](O)c1nc2cnc3ccsc3c2n1[C@H]1CCCN(C(=O)CCc2cn[nH]c2)C1 , pIC50: ≥ 6.00

----------
Collected pIC50 values appear next to each entry.
biological target: UniProt O60674; test: In vitro JAK kinase assay (HTRF, phosphorylation of a biotinylated peptide), JAK2; format: biochemical; details: 1 mM ATP
pIC50: −log10 of the molar value.

Example entries and their recorded answers appear below.
molecule | measured.on | observed.measurement
N#CC[C@H]1CC[C@H](n2c(C3CC3)nc3cnc4ccsc4c32)CO1 | UniProt O60674 | ≥ 6.00
C[C@@H](O)c1nc2cnc3ccsc3c2n1[C@H]1CC[C@H](CNS(C)(=O)=O)OC1 | UniProt O60674 | ≥ 5.70

pIC50 reading for CC(N)c1nc2cnc3ccsc3c2n1[C@H]1CC[C@H](CC#N)OC1.O=C(O)C(F)(F)F (some centres unmarked) [Example 68, trifluoroacetate] : ≥ 5.70

pIC50 reading for C[C@@H](O)c1nc2cnc3ccsc3c2n1C1CCCCC1 : < 5.70

pIC50 reading for C[C@@H](O)c1nc2cnc3ccsc3c2n1[C@H]1CCN(CCC#N)C1 : < 5.70

pIC50 reading for C[C@@H](O)c1nc2cnc3ccsc3c2n1[C@H]1CC[C@H](CNC(=O)N(C)C)CC1 : < 5.70

pIC50 reading for C[C@@H](O)c1nc2cnc3ccsc3c2n1[C@H]1CC[C@H](CC#N)CC1.Cl [Example 10, HCl salt] : ≥ 6.00

----------
# collection of IC50 values tested on human JAK2 (Homo sapiens (Human), UniProt O60674)

Example entries and their recorded answers appear below.
compound | IC50
CC(C)c1nc2cnc3ccsc3c2n1[C@H]1CC[C@H](CC#N)CC1 | ≤ 1 µM
N#CCC1CCC(CO)(n2cnc3cnc4ccsc4c32)CC1 (single isomer, unassigned) [72 (second peak)] | ≤ 1 µM

Short answer on human JAK2 (Homo sapiens (Human), UniProt O60674) for CC(=O)NC[C@H]1CC[C@H](n2c([C@@H](C)O)nc3cnc4ccsc4c32)CC1 , IC50: ≤ 2 µM

----------
Collected JAK2/JAK1 values appear next to each entry.
system: human JAK1; test: In vitro JAK kinase assay (HTRF, phosphorylation of a biotinylated peptide), JAK1; type: biochemical; settings: ratio of IC50s, 1 mM ATP

JAK2/JAK1 reading for C[C@@H](O)c1nc2cnc3ccsc3c2n1C1CCN(CCCC(F)(F)F)CC1 : >10

JAK2/JAK1 reading for C[C@@H](O)c1nc2cnc3ccsc3c2n1[C@H]1CCN(C(=O)CC#N)C1 : >6

JAK2/JAK1 reading for C[C@@H](O)c1nc2cnc3ccsc3c2n1[C@H]1CCN(CCCC(F)(F)F)C1 : >10

JAK2/JAK1 reading for CC(N)c1nc2cnc3ccsc3c2n1[C@H]1CC[C@H](CC#N)OC1.O=C(O)C(F)(F)F (stereo partly drawn) : >10

JAK2/JAK1 reading for CS(=O)(=O)NCc1nc2cnc3ccsc3c2n1[C@H]1CC2CCC1C2 (stereo partly drawn) : >4

JAK2/JAK1 reading for C[C@@H](O)c1nc2cnc3ccsc3c2n1C1CCC(NCCC#N)CC1 (single isomer, unassigned) [30 (first peak)] : >2

----------
pIC50: −log10 of the molar value.
# collection of pIC50 values tested on human JAK2 (Homo sapiens (Human))

Example entries and their recorded answers appear below.
compound | pIC50
CNC(C)c1nc2cnc3ccsc3c2n1[C@H]1CC[C@H](CC#N)OC1 (stereo partly shown) | < 5.70
CC(C)OC(=O)NC[C@H]1CC[C@H](n2c([C@@H](C)O)nc3cnc4ccsc4c32)CC1 | ≥ 6.00
C[C@H](O)c1nc2cnc3ccsc3c2n1[C@H]1CC[C@H](CC#N)OC1 | < 5.70

Below: the item to evaluate.
pIC50 reading for C[C@@H](O)c1nc2cnc3ccsc3c2n1C1CCC(O)(CC#N)CC1 (single isomer, unassigned) [24 (first peak)] : < 5.70
